Tested on: SIRT1 (Homo sapiens, UniProt Q96EB6)
Sequence (Q96EB6 1-747): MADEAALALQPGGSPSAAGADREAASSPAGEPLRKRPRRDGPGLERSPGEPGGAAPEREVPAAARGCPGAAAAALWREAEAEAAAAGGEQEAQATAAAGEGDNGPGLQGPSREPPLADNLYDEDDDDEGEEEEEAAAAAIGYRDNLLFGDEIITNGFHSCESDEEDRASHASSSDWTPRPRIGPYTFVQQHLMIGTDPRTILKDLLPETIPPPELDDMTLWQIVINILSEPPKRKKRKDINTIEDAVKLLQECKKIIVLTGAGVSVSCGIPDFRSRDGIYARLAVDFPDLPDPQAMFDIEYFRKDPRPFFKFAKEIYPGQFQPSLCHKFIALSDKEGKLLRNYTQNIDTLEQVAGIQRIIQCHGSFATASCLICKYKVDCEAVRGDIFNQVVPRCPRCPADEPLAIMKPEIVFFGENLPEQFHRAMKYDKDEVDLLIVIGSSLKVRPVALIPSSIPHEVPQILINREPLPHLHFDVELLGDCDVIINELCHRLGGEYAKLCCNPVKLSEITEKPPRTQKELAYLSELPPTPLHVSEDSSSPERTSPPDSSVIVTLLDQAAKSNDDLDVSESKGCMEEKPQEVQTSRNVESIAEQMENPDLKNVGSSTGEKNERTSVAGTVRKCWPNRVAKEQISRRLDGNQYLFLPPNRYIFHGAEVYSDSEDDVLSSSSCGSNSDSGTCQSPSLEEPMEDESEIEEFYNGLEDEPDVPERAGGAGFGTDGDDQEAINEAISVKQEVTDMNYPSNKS
Procedure summary: SIRT1 deacetylation of Trp 5-mer peptide, OAADPr mass spec assay
Experimental parameters: Trp SIRT1_IC50, Trp 5-mer peptide; class symbols
pIC50: −log10 of the molar value.
Entries and their pIC50

# count of solved cases: 4
NCCN1CCN(c2ncnc3cc(C(N)=O)oc23)CC1 :: < 5.00
NC(=O)c1cc2ncnc(N3CCC4(CCNC4)CC3)c2s1 :: 5.00 to 6.00
CC(C)(C)C(=O)NCCC1CCN(c2ncc(Br)c3cc(C(N)=O)sc23)CC1 :: 5.00 to 6.00
NC(=O)c1cc2ncnc(N3CCC(CO)CC3)c2s1 :: 5.00 to 6.00

Exercise: # lookup: pIC50 of CC(C)(C)OC(=O)N1CCC2(CCN(c3ncnc4cc(C(N)=O)sc34)CC2)C1
Key: 5.00 to 6.00

* * *

Tested on: SIRT1 (Homo sapiens)
Procedure summary: SIRT1 deacetylation of Trp 5-mer peptide, OAADPr mass spec assay
Experimental parameters: Trp SIRT1_IC50, Trp 5-mer peptide; class symbols
Measured endpoint: IC50

# count of solved cases: 2
CC(=O)NCCC1CCN(c2ncnc3cc(C(N)=O)sc23)CC1 :: < 1000 nM
CC(C)(C)C(=O)NCCN1CCN(c2ncnc3cc(C(N)=O)sc23)CC1 :: < 1000 nM

Exercise: Write down the reported IC50 of NCCNC(=O)c1cccc(C(=O)NCCN2CCN(c3ncnc4ccsc34)CC2)c1 , test system: SIRT1 (Homo sapiens).
Key: > 10000 nM

Exercise: Write down the reported IC50 of CC(=S)NCCC1CCN(c2ncnc3cc(C(N)=O)sc23)CC1 , test system: SIRT1 (Homo sapiens).
Key: < 1000 nM

Exercise: Write down the reported IC50 of CC(C)(C)C(=O)N1CCC2(CCN(c3ncnc4cc(C(N)=O)sc34)CC2)C1 , test system: SIRT1 (Homo sapiens).
Key: < 1000 nM

Exercise: Write down the reported IC50 of CC(C)(C)C(=O)NCCC1CCN(c2ncnc3ccsc23)CC1 , test system: SIRT1 (Homo sapiens).
Key: > 10000 nM
